Target: T1, VEGFR-3-Fc (UniProt P35916 25-328)
T1 construct: domain: first three Ig domains; conditioned supernatant of 293T cells; also called VEGFR-3-Fc fusion protein; not shown: Fc fragment of the pIg vector
T1 sequence (looked up): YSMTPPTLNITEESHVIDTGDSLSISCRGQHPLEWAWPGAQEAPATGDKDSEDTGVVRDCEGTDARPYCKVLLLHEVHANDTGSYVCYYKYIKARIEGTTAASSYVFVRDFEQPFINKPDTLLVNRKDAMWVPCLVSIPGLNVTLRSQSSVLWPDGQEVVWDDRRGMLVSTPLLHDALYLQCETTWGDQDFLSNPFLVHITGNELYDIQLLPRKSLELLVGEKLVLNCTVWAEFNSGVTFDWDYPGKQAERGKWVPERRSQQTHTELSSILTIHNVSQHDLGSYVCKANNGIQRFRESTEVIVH
Experiment: receptor-Fc IP
metric.name: binding result

32-15 (ligand) GQNHHEVVKSIDNEWRKTQCMPIETLVDIFQEFGVATNTFFKPPCVSVYRCGGCCNSEGLQCVPTEESNITMQIMRITVPLSQGPKPVTISFANHTSCRCMSKLD    binds
13-11 (ligand) GQNHHEVVKFMDVYQRSYCHPIETLVDIFQEYPDEIEYIFKPPCVSVYRCGGCCNSEGLQCVPTEESNITMQIMRITVPLSQGPKPVTISFLQHNKCECRPKKD    no binding
24-5 (ligand) AHYNTEILKSIDNEWRKTQCMPREVCIDVGKEFGVATNTFFKPSCVPLMRCGGCCNDEGLECVPTEESNITMQIMRIKPHQGQHIGEMSFANHTSCRCMSKLD    no binding
21-14 (ligand) AHYNTEILKSIDNEWRKTQCMPREVCIDVGKEYPDEIEYIFKPSCVPLMRCGGCCNDEGLECMNTSTSYLSKTLFEITVPLSQGPKPVTISFANHTSCRCMSKLD    no binding
